molecular target: COVID S1 RBM Fc fusion (Antigen 2) (SARS-CoV-2, UniProt P0DTC2 437-508); assay: phage ELISA
MEASURE NAME: ELISA fold over background (fold)
One number for each entry, in fold.

The following binders have reported results that may help.
- BINDER: "SARS-CoV-2 variant 1-24 (antibody, V domains shown) VH: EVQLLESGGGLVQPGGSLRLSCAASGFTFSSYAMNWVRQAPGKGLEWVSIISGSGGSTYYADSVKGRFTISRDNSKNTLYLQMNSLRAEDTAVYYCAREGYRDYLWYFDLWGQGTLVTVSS VL: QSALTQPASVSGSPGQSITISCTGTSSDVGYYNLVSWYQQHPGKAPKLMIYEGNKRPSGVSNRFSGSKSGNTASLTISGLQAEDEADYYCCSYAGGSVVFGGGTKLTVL"
  ELISA fold over background (fold): 1.3
- BINDER: "SARS-CoV-2 variant 1-36 (antibody, V domains shown) VH: EVQLLESGGGLVQPGGSLRLSCAASGLTFSSYAMSWVRQAPGKGLEWVSDISGSGGSTYYADSVKGRFTISRDNSKNTLYLQMNSLRAEDTAVYYCVKGTIPIFGVIRSAFDYWGQGTLVTVSS VL: QSALTQPASVSGSPGQSITISCTGTSSDVGSYSLVSWYQQHPGKAPKLMIYEGDKRPSGVSNRFSGSKSGNTASLTISGLQAEDEADYYCCSYAGSYSYVVFGGGTKLTVL"
  ELISA fold over background (fold): 0.8

Please look at the following binder next.
I would be grateful if you could share the reported ELISA fold over background for SARS-CoV-2 variant 1-5 (antibody, V domains shown) VH: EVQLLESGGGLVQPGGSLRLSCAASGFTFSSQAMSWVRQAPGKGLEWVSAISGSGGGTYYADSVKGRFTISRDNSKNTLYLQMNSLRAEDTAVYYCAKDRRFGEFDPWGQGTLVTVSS VL: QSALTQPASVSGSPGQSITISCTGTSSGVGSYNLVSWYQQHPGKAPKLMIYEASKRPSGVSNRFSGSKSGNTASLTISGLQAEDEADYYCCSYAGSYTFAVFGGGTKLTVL . 1.4

Provenance of the data: patent US20210355194A1
